Catalogue of Kd readings, one per entry.
- Measured On: T1, recombinant YFV E protein (soluble E, sE; YFV Asibi strain) (Yellow fever virus, Asibi strain, UniProt Q6DV88 286-678)
- T1 construct: also called YFV E antigen; YFV E monomer
- Protocol Summary: BLI monovalent (IgG on tip)

Binder: ADI-46742 (antibody, V domains shown, full-length IgG; also called Antibody Number 86) VH: QVQLQESGPGLVKPSETLSLTCTVSGASIRSYLWSWIRQPPGKELEWLGSIYHSGSTKYNPSLKSRVTISADTSKNQFSLKLNSVTAADTAVFYCARETANNWFDPWGQGTLVTVSS VL: SYELTQPPSVSVAPGQTARIICGGNYIGGKSVHWYQQKPGQAPVLVVYNDNDRPSGIPERFSGSNSGNTATLTISRVAAGDEADYYCQVWDNSSDRRVFGGGTKLTVL
Result Modifier: >
Kd / µM: 0.1

Binder: ADI-48897 (antibody, V domains shown, full-length IgG; also called Antibody Number 28) VH: EVQLLESGPGLVKPSETLSLTCTVSGGSLSSDSHFWGWIRQPPGKGLEWIGYIYYSGNANYNPSLQSRVTISLDKSKNQFSLRLTSVTAADTAVYYCASRKEVRGTEDYFDYWGQGTLVTVSS VL: EIVLTQSPATLSLSPGERATLSCRASQSVNRYLAWYQQKPGQAPRLLIYDASNRATGIPARFSGSGSGTDFTLTISSLEPEDFAVYYCHQRTNWPWTFGQGTKVEIK
Result Modifier: =
Kd / µM: 0.00322

Binder: ADI-49194 (antibody, V domains shown, full-length IgG) VH: EVQLVESGGAVVQPGRSLRLSCAASGFTFSSYGMHWVRQAPGKGLESVAVIWYDGSNKNYADSVKGRFTISRDNSKNTLFLQMNSLRAEDSAMYYCAKTYDSRAYYYLDYWGQGTLVTVSS VL: ETTLTQSPSTLSTSVGDRVTITCRASQSISSWLAWYQQKPGKAPKLLIYRASSLETEVPSRFSGSGSGTDFTLTISRLQPDDFATYFCQQYNRYPYTFGQGTKLEIK
Result Modifier: =
Kd / µM: 0.234
